# maps each entry to its koff
target: T1, human GPC3-his tag protein (human, UniProt P51654 25-559, limits assumed); assay: SPR Biacore 8K, mAb captured, one or two doses GPC3-his
T1 construct: recombinant soluble antigen used as analyte in all Biacore runs; also called recombinant GPC3 protein; rhGPC3-His; not shown: His tag
Number in s⁻¹, nothing else.

Some binders with known koff results, for comparison:
52H5D3B8-14# chimeric mAb (antibody, V domains shown, CDR3 mutant of the 52H5D3B8 chimeric mAb (human IgG1)) VH: QVQLQQSGAELVRPGASVKLSCKALGYTFTDYEMHWVKQTPVHGLEWIGAIHPGSGGTAYNQKFKGKATLTADKFSSTGYMELSSLTSEDSAVYYCTRYYSFAYWGQGTLVTVSA VL: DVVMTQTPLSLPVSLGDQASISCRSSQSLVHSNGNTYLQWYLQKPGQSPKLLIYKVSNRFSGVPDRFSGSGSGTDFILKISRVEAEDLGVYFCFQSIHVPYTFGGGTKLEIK : 0.000737
52H5D3B8-2# chimeric mAb (antibody, V domains shown, CDR3 mutant of the 52H5D3B8 chimeric mAb (human IgG1)) VH: QVQLQQSGAELVRPGASVKLSCKALGYTFTDYEMHWVKQTPVHGLEWIGAIHPGSGGTAYNQKFKGKATLTADKFSSTGYMELSSLTSEDSAVYYCTRFYSFAYWGQGTLVTVSA VL: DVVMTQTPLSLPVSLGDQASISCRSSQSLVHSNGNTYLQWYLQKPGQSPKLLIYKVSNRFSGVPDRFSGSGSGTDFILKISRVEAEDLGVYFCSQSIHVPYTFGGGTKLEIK : 0.00121
52H5D3B8-5# chimeric mAb (antibody, V domains shown, CDR3 mutant of the 52H5D3B8 chimeric mAb (human IgG1)) VH: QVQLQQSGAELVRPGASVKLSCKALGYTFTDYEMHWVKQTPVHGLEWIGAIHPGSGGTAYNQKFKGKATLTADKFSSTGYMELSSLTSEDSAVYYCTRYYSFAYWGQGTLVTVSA VL: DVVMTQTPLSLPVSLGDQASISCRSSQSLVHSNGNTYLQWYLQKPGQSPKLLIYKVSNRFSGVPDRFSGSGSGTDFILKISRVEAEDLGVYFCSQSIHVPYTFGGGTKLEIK : 0.000412

(Q) # input binder: 52H5D3B8-12# chimeric mAb (antibody, V domains shown, CDR3 mutant of the 52H5D3B8 chimeric mAb (human IgG1)) VH: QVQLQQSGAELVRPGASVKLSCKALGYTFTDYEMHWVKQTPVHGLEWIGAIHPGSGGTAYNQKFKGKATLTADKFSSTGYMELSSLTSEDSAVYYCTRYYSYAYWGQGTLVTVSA VL: DVVMTQTPLSLPVSLGDQASISCRSSQSLVHSNGNTYLQWYLQKPGQSPKLLIYKVSNRFSGVPDRFSGSGSGTDFILKISRVEAEDLGVYFCFQSTHVPYTFGGGTKLEIK ; wanted: its koff
(A) 0.00133
